Molecular target: Human immunodeficiency virus type 1 reverse transcriptase (Human immunodeficiency virus 1)
Test: Compound ability to inhibit the production of HIV reverse transcriptase (RT) in culture supernatant of CEM-CL13 on at 15 days at a concentration 5 uM
Format: functional
parameter: Activity (c.p.m. 50ul-1)
Answers are plain numbers.

Field: example entries. Status: answers known.
compound	Activity (c.p.m. 50ul-1)
Cc1cn([C@H]2C[C@H](N=[N+]=[N-])[C@@H](COP(=O)(O)OC[C@H]3OC(O)[C@H](O)[C@@H](O)[C@@H]3O)O2)c(=O)[nH]c1=O (some centres undefined)	400
Cc1cn([C@H]2C[C@H](N=[N+]=[N-])[C@@H](COP(=O)(O)OC[C@H]3OC(O)[C@@H](O)[C@@H](O)[C@@H]3O)O2)c(=O)[nH]c1=O (some centres undefined)	1300
Cc1cn([C@H]2C[C@H](N=[N+]=[N-])[C@@H](CO)O2)c(=O)[nH]c1=O [ZIDOVUDINE]	500

Prompt: So what does the record say about Activity (c.p.m. 50ul-1) for Cc1cn([C@H]2C[C@H](N=[N+]=[N-])[C@@H](COP(=O)(O)OCCO[C@H]3O[C@H](CO)[C@@H](O)[C@H](O)[C@@H]3O)O2)c(=O)[nH]c1=O ?
Completion: 852

Reference for the values: ChEMBL document CHEMBL1125259
